assay: Lipophilicity, Log P of the compound; type: physicochemical; conditions: octanol/water
For each entry below, report its logP value.
One number for each entry.

// solved cases for logP follow
- C[C@H]1[C@H](OCCC23CC4CC(CC(C4)C2)C3)O[C@@H]2O[C@@]3(C)CC[C@H]4[C@H](C)CC[C@@H]1[C@@]24OO3: 6.29
- C[C@H]1[C@@H](OCC2c3ccccc3-c3ccccc32)O[C@@H]2C[C@@]3(C)CC[C@H]4[C@H](C)CC[C@@H]1[C@@]24OO3: 6.75
- C[C@H]1[C@H](OCCOc2ccc(-c3ccccc3)cc2)O[C@@H]2C[C@@]3(C)CC[C@H]4[C@H](C)CC[C@@H]1[C@@]24OO3: 6.85
- C[C@H]1[C@@H](OCc2ccccc2-c2ccccc2)O[C@@H]2O[C@@]3(C)CC[C@H]4[C@H](C)CC[C@@H]1[C@@]24OO3: 6.91
- C[C@H]1[C@@H](OCc2ccc(-c3ccccc3)cc2)O[C@@H]2O[C@@]3(C)CC[C@H]4[C@H](C)CC[C@@H]1[C@@]24OO3: 6.91
- C[C@H]1[C@H](OCc2ccc(-c3ccccc3)cc2)O[C@@H]2O[C@@]3(C)CC[C@H]4[C@H](C)CC[C@@H]1[C@@]24OO3: 6.91
- C[C@@H]1CC[C@H]2[C@@H](C)C(OCCC3c4ccccc4-c4ccccc43)O[C@@H]3C[C@@]4(C)CC[C@@H]1[C@]32OO4 (stereo partly specified): 7.1
- C[C@H]1[C@H](OCC2c3ccccc3-c3ccccc32)O[C@@H]2C[C@@]3(C)CC[C@H]4[C@H](C)CC[C@@H]1[C@@]24OO3: 6.75

I'm hoping you can list logP for every compound here, please.
1. C[C@H]1[C@H](OCCOc2ccccc2-c2ccccc2)O[C@@H]2C[C@@]3(C)CC[C@H]4[C@H](C)CC[C@@H]1[C@@]24OO3
2. CCO[C@H]1O[C@@H]2O[C@@]3(C)CC[C@H]4[C@H](C)CC[C@@H]([C@H]1C)[C@@]24OO3
3. C[C@@H]1CC[C@H]2[C@@H](C)C(OCC34CC5CC(CC(C5)C3)C4)O[C@@H]3O[C@@]4(C)CC[C@@H]1[C@]32OO4 (stereo partly specified)
4. C[C@H]1[C@H](OCCC2C3CC4CC(C3)CC2C4)O[C@@H]2O[C@@]3(C)CC[C@H]4[C@H](C)CC[C@@H]1[C@@]24OO3 (stereo partly specified)
5. C[C@H]1[C@@H](OCCC23CC4CC(CC(C4)C2)C3)O[C@@H]2O[C@@]3(C)CC[C@H]4[C@H](C)CC[C@@H]1[C@@]24OO3
6. C[C@H]1[C@@H](OCCc2ccc(-c3ccccc3)cc2)O[C@@H]2O[C@@]3(C)CC[C@H]4[C@H](C)CC[C@@H]1[C@@]24OO3
7. C[C@H]1[C@@H](OCCOc2ccccc2-c2ccccc2)O[C@@H]2C[C@@]3(C)CC[C@H]4[C@H](C)CC[C@@H]1[C@@]24OO3
8. C[C@H]1[C@@H](OCCC2C3CC4CC(C3)CC2C4)O[C@@H]2O[C@@]3(C)CC[C@H]4[C@H](C)CC[C@@H]1[C@@]24OO3 (stereo partly specified)

6.85
3.84
6.02
6.15
6.29
7.19
6.85
6.15
